Origin of the recorded values: the supplement of paper PMC9233669

Consider the following sequences; for each one, report its self-aminoacylation.
# Tested on: biotinyl-Leu-oxazolone
# measurement.protocol: self-aminoacylation, catalytic enhancement (BLO) (fold over background); higher = more active; k-Seq, kA / k0A0; sequences stand for … in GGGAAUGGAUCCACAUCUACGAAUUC…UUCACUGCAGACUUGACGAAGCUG
Fewer inactive variants are shown than the library holds.
One number for each entry.

>  <input.sequence>
CCACACCUCAAGCGAUCGGUC [Fam1B.1 aminoacylation ribozyme variant]

>  <measured.parameter>
self-aminoacylation

>  <readout.number>
1.69

$$$$
>  <input.sequence>
AUUACCCUGGUCAUCGGGUAA [Fam2.1 aminoacylation ribozyme variant]

>  <measured.parameter>
self-aminoacylation

>  <readout.number>
38.2

$$$$
>  <input.sequence>
AUUCGCCUAGGUAAUCGGGUG [Fam2.2 aminoacylation ribozyme variant]

>  <measured.parameter>
self-aminoacylation

>  <readout.number>
3.88

$$$$

Quick batch: self-aminoacylation for everything below.
1. AGGUUUGCUAAGAGUCGCAAG [Fam3.1 aminoacylation ribozyme variant]
2. CUAGUUCAAACAAUCGCUCUG [Fam1A.1 aminoacylation ribozyme variant]
3. CUAAUUCAAACAAACGGUCUG [Fam1A.1 aminoacylation ribozyme variant]
4. CUUCACCUGGGUCAUCGGGUG [Fam2.2 aminoacylation ribozyme variant]
5. CGACUACAAACAAUCGGUCUG [Fam1A.1 aminoacylation ribozyme variant]

a:
[1.02, 0.798, 0.561, 4.82, 0.926]

====

Record form. Attribute: self-aminoacylation. Fill in for each entry.
# System: biotinyl-Val-oxazolone
# measurement.protocol: self-aminoacylation, catalytic enhancement (BVO) (fold over background); higher = more active; k-Seq, kA / k0A0; sequences stand for … in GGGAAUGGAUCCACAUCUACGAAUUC…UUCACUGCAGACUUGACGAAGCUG
This sample holds only a part of the variants without activity.
One number for each entry.

>  <input.sequence>
AUUCACCUAGGUCAUCGGCUU [Fam2.2 aminoacylation ribozyme variant]

>  <self-aminoacylation>
2.02

$$$$
>  <input.sequence>
AUGUCUGCUAAUAGUCGCAAG [Fam3.1 aminoacylation ribozyme variant]

>  <self-aminoacylation>
1.56

$$$$
>  <input.sequence>
AUUCACCUAGGUCAUCGUGUU [Fam2.2 aminoacylation ribozyme variant]

>  <self-aminoacylation>
0.73

$$$$
>  <input.sequence>
CCACACUUCAAUCAAUCGAUC [Fam1B.1 aminoacylation ribozyme variant]

>  <self-aminoacylation>
0.609

$$$$
>  <input.sequence>
AUUCACUUAGGUCAUCGGUUG [Fam2.2 aminoacylation ribozyme variant]

>  <self-aminoacylation>
0.831

$$$$

Answer for every listed entry: what is its self-aminoacylation? The entries follow.
1. ACGUUUGCUAAGAGUCGCAAG [Fam3.1 aminoacylation ribozyme variant]
2. AAGUUUGCUAAUAGUCACAAC [Fam3.1 aminoacylation ribozyme variant]
3. CUACUUCAAACCGUCGGUCUG [Fam1A.1 aminoacylation ribozyme variant]
4. GUUCAUCUAGGUCAUCGGGUG [Fam2.2 aminoacylation ribozyme variant]
5. AUUGCCCUGGUCAGCGAGUGA [Fam2.1 aminoacylation ribozyme variant]

a:
1. 1.44
2. 0.621
3. 0.917
4. 3.72
5. 3.76

====

# Tested on: biotinyl-Trp-oxazolone
# measurement.protocol: self-aminoacylation, catalytic enhancement (BWO) (fold over background); higher = more active; k-Seq, kA / k0A0; sequences stand for … in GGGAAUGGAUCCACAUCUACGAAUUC…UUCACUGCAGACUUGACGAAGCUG
This sample holds only a part of the variants without activity.
Assign self-aminoacylation to each entry below.
Give bare numbers.

Batch: self-aminoacylation for all items listed.
1. CCACACUUCUAGCAAUCGGAC [Fam1B.1 aminoacylation ribozyme variant]
2. CUACUUCAAUCACUCGGUCUG [Fam1A.1 aminoacylation ribozyme variant]
3. AUUACCCUAGUCAUCCAGUGA [Fam2.1 aminoacylation ribozyme variant]

a:
1: 0.61; 2: 0.688; 3: 3.28

Items follow; give self-aminoacylation for each.
1. AUUCACCUAGGUUAUCGGAUG [Fam2.2 aminoacylation ribozyme variant]
2. AUUACCCUGCUCAUAGAGUGA [Fam2.1 aminoacylation ribozyme variant]

a:
1. 0.723
2. 10.7

For each listed entry, give its self-aminoacylation.
1. AUUCACCUAGGUAAUCGGAUG [Fam2.2 aminoacylation ribozyme variant]
2. UUACUUCAAACAACCGGUCUG [Fam1A.1 aminoacylation ribozyme variant]
3. AAGUUUGCAAAUAGUCUCAAG [Fam3.1 aminoacylation ribozyme variant]
4. CCACACGUCAAGAAAUCGGUC [Fam1B.1 aminoacylation ribozyme variant]

a:
1. 0.594
2. 1.51
3. 0.81
4. 0.951

====

# Tested on: biotinyl-Met-oxazolone
# measurement.protocol: self-aminoacylation, catalytic enhancement (BMO) (fold over background); higher = more active; k-Seq, kA / k0A0; sequences stand for … in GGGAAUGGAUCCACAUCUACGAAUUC…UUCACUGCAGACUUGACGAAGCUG
This sample holds only a part of the variants without activity.
measured.parameter: self-aminoacylation
Answers are plain numbers.

Consider the following illustrative entries.
>  <input.sequence>
AUUCAGCUAGGUCAUCGGGUA [Fam2.2 aminoacylation ribozyme variant]

>  <self-aminoacylation>
3.6

$$$$
>  <input.sequence>
AUUACCGUGCUCAUCGAGUGA [Fam2.1 aminoacylation ribozyme variant]

>  <self-aminoacylation>
2.12

$$$$
>  <input.sequence>
AAGUUUGAUAAUAGUCACAAG [Fam3.1 aminoacylation ribozyme variant]

>  <self-aminoacylation>
0.716

$$$$
>  <input.sequence>
AUUCAACUUGGUCAUCGGGUG [Fam2.2 aminoacylation ribozyme variant]

>  <self-aminoacylation>
5.25

$$$$

Turning now to a further record.
q: What measured self-aminoacylation goes with ACUCACAUAGGUCAUCGGGUG [Fam2.2 aminoacylation ribozyme variant] ?
a: 9.37

====

# System: biotinyl-Met-oxazolone
# measurement.protocol: self-aminoacylation, catalytic enhancement (BMO) (fold over background); higher = more active; k-Seq, kA / k0A0; sequences stand for … in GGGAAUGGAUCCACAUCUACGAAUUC…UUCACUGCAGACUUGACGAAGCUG
Fewer inactive variants are shown than the library holds.
measured.parameter: self-aminoacylation
Answers are plain numbers.

>  <input.sequence>
AAGUUUGUCAAUAGUCGCAAG [Fam3.1 aminoacylation ribozyme variant]

>  <self-aminoacylation>
1.87

$$$$
>  <input.sequence>
CCUCACUUCGAGCAAUCGGUC [Fam1B.1 aminoacylation ribozyme variant]

>  <self-aminoacylation>
0.881

$$$$
>  <input.sequence>
AGUCACCUAGUUCAUCGGGUG [Fam2.2 aminoacylation ribozyme variant]

>  <self-aminoacylation>
4.14

$$$$
>  <input.sequence>
ACUCACCUGGGUCAUCGGGUG [Fam2.2 aminoacylation ribozyme variant]

>  <self-aminoacylation>
4.83

$$$$
>  <input.sequence>
AAGUAUGAUAAUAGUCGCAAG [Fam3.1 aminoacylation ribozyme variant]

>  <self-aminoacylation>
1.13

$$$$

Would you mind listing self-aminoacylation for each of the following sequences?
1. CCACAUUUCAAGCAACCGGUC [Fam1B.1 aminoacylation ribozyme variant]
2. AUUACCCUGGUAAUCGAGUGU [Fam2.1 aminoacylation ribozyme variant]
3. AAGUUUGCCAAUGGUCGCAAG [Fam3.1 aminoacylation ribozyme variant]
4. AUCACCCUGGUCAUCGUGUGA [Fam2.1 aminoacylation ribozyme variant]

a:
[1.09, 5.16, 1.02, 3.98]

====

# Tested on: biotinyl-Met-oxazolone
# measurement.protocol: self-aminoacylation, catalytic enhancement (BMO) (fold over background); higher = more active; k-Seq, kA / k0A0; sequences stand for … in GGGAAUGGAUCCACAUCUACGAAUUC…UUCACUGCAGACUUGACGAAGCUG
This sample holds only a part of the variants without activity.
Field: self-aminoacylation. Provide a value for each of the sequences that follow.

Sample answers from the record:
>  <input.sequence>
AUUCAACUAGGUCAGCGGGUG [Fam2.2 aminoacylation ribozyme variant]

>  <subject.of.test>
biotinyl-Met-oxazolone

>  <self-aminoacylation>
4.12

$$$$
>  <input.sequence>
CUUCUACAAACAAUCGGUCUG [Fam1A.1 aminoacylation ribozyme variant]

>  <subject.of.test>
biotinyl-Met-oxazolone

>  <self-aminoacylation>
0.763

$$$$
>  <input.sequence>
AUUCUCCUAGGGCAUCGGGUG [Fam2.2 aminoacylation ribozyme variant]

>  <subject.of.test>
biotinyl-Met-oxazolone

>  <self-aminoacylation>
4.21

$$$$
>  <input.sequence>
AUUACCCUGGUCAUCGAGUAC [Fam2.1 aminoacylation ribozyme variant]

>  <subject.of.test>
biotinyl-Met-oxazolone

>  <self-aminoacylation>
6.05

$$$$

Turning now to a further sequence:
q: Could you share which self-aminoacylation value was measured for AAGUCUGCUAAUAGUCGCUAG [Fam3.1 aminoacylation ribozyme variant] ?
a: 0.995
